# Tested on: EhCHT1
# PROTOCOL_SUMMARY: Chitinase activity assay, Entamoeba histolytica chitinase
# Type: biochemical
# MEASUREMENT_CONDITIONS: 10 μM final concentration
MEASUREMENT_KIND: inhibition of EhCHT1 at single concentration

COMPOUND	RESULT
O=C(Nc1ccc(Oc2ccc(Cl)cc2)cc1)c1cc(I)cc(I)c1	sparing
O=C(Nc1ccc(Oc2ccc(Cl)cc2)cc1)c1cc(I)cc(I)c1O	sparing
O=C(Nc1ccc(Oc2ccc(Cl)cc2)c(Cl)c1)c1cc(I)cc(I)c1O [Compound 3m, rafoxanide, reference compound]	sparing
COc1c(I)cc(I)cc1C(=O)Nc1ccc(Oc2ccc(Cl)cc2)cc1	sparing
O=C(Nc1ccc(-c2ccccc2)cc1)c1cc(I)cc(I)c1O	sparing
O=C(Nc1ccc(-c2ccc(Cl)cc2)cc1)c1cc(I)cc(I)c1O	sparing
